Listing: remaining activity at 1 µM of selected compounds
Biological target: panel of 442 kinases (Homo sapiens, UniProt O95747)
Construct: purchased Ambit Biosciences (scanMAXX KINOMEscan)
Sequence (O95747 whole entry): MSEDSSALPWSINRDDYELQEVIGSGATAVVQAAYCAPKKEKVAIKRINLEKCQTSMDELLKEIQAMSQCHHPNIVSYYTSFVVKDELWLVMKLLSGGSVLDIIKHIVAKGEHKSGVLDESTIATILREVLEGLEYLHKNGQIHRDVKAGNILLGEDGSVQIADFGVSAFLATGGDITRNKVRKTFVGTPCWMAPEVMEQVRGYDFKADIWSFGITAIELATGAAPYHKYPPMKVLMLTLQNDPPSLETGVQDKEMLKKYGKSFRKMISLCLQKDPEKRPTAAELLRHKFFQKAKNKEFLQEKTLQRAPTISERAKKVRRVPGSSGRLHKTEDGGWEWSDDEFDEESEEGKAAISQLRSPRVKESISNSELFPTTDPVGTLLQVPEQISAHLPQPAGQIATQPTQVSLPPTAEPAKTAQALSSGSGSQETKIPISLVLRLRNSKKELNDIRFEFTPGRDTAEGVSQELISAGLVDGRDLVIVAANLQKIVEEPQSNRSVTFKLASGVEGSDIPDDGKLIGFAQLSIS
Assay: biochemical
Assay type: binding
Conditions: kinase OSR1; 1 µM; read-out: % of control at 1 µM
Answer in %, number only, no unit symbol.

Below are worked cases with known answers.
INSERT INTO measurements (molecular_string, experimental_value) VALUES
  ('Cn1c(=O)n(-c2ccc(C(C)(C)C#N)cc2)c2c3cc(-c4cnc5ccccc5c4)ccc3ncc21', 91),
  ('Nc1cc(C(F)(F)F)c(-c2cc(N3CCOCC3)nc(N3CCOCC3)n2)cn1', 97),
  ('FC(F)c1nc2ccccc2n1-c1nc(N2CCOCC2)nc(N2CCOCC2)n1', 82);

Now look at this one.
GET /values?readout=remaining activity at 1 µM&system=panel of 442 kinases (Homo sapiens, UniProt O95747)&item= `COc1ncc(-c2ccc3nccc(-c4ccnnc4)c3c2)cc1NS(=O)(=O)c1ccc(F)cc1F`
100

====

Entries and their remaining activity at 1 µM
Biological target: panel of 442 kinases (Homo sapiens, UniProt Q14012)
Construct: purchased Ambit Biosciences (scanMAXX KINOMEscan)
Sequence (Q14012 whole entry): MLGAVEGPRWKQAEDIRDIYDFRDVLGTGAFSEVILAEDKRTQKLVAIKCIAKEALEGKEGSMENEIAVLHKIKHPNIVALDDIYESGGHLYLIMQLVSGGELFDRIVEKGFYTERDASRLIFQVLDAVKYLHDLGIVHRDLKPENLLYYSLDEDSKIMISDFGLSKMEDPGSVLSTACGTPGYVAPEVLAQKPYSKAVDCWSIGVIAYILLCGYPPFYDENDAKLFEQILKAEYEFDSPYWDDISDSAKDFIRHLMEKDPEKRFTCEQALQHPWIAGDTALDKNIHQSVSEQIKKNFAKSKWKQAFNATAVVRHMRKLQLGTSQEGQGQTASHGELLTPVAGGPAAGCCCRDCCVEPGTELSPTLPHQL
Test: biochemical
Type: binding
Conditions: CAMK1; 1 µM; read-out: % of control at 1 µM
Please reply with the bare figure in % and do not write the unit itself.

The examples below pair each entry with its known result.
INSERT INTO measurements (molecular_string, assay_system, unit_of_measure, experimental_value) VALUES
  ('Cn1c(=O)n(-c2ccc(C(C)(C)C#N)cc2)c2c3cc(-c4cnc5ccccc5c4)ccc3ncc21', 'panel of 442 kinases (Homo sapiens, UniProt Q14012)', '%', 78),
  ('Nc1cc(C(F)(F)F)c(-c2cc(N3CCOCC3)nc(N3CCOCC3)n2)cn1', 'panel of 442 kinases (Homo sapiens, UniProt Q14012)', '%', 100),
  ('COc1ncc(-c2ccc3nccc(-c4ccnnc4)c3c2)cc1NS(=O)(=O)c1ccc(F)cc1F', 'panel of 442 kinases (Homo sapiens, UniProt Q14012)', '%', 100);

Kindly review the next molecule as well.
// query remaining activity at 1 µM value for entry `FC(F)c1nc2ccccc2n1-c1nc(N2CCOCC2)nc(N2CCOCC2)n1`
100

====

Target: panel of 442 kinases (Homo sapiens)
Construct: purchased Ambit Biosciences (scanMAXX KINOMEscan)
Assay: biochemical
Type: binding
Conditions: CDK2; 1 µM; read-out: % of control at 1 µM
ENDPOINT NAME: remaining activity at 1 µM (%)
Expressed in %, but write only the number.

# example entries with known answers
INSERT INTO assay_data (molecular_string, endpoint_name, experimental_value) VALUES
  ('Cn1c(=O)n(-c2ccc(C(C)(C)C#N)cc2)c2c3cc(-c4cnc5ccccc5c4)ccc3ncc21', 'remaining activity at 1 µM', 78),
  ('FC(F)c1nc2ccccc2n1-c1nc(N2CCOCC2)nc(N2CCOCC2)n1', 'remaining activity at 1 µM', 74),
  ('Nc1cc(C(F)(F)F)c(-c2cc(N3CCOCC3)nc(N3CCOCC3)n2)cn1', 'remaining activity at 1 µM', 84);

For the next question, use this compound.
# query: remaining activity at 1 µM of entry `COc1ncc(-c2ccc3nccc(-c4ccnnc4)c3c2)cc1NS(=O)(=O)c1ccc(F)cc1F`
100

All values here come from paper PMC5564600.
